- target.entity: bradykinin receptor (Cavia porcellus, UniProt O70526)
- Construct: from tissue; host or cells: guinea pig terminal ileum, washed membrane homogenate
- Sequence (O70526 1-372): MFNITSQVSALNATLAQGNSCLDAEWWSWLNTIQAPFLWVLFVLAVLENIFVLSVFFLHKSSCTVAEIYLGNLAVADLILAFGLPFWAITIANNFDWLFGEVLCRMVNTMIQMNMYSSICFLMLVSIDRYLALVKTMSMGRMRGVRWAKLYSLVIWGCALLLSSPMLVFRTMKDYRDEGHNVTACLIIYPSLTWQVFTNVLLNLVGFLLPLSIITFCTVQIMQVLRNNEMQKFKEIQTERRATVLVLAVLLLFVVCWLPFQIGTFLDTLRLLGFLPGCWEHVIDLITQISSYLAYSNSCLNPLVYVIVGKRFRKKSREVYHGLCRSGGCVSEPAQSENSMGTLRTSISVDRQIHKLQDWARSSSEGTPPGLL
- assay.summary: 3H-Bradykinin binding assay, guinea pig terminal ileum homogenate
- measurement.parameters: competition with 3H-bradykinin (~0.3 nM), guinea pig terminal ileum membranes, 90 min ambient temperature
# Lookup of reported Ki keyed by entry
Numbers only here, please. The scale is nM.

Example results:
CO[C@@H]1C[C@H](C(=O)N2Cc3ccccc3C[C@H]2C(=O)N[C@@H](CCCNC(=N)N)C(=O)O)N(C(=O)[C@H](CO)NC(=O)[C@H](Cc2cccs2)NC(=O)CNC(=O)[C@@H]2C[C@@H](O)CN2C(=O)[C@@H]2CCCN2C(=O)[C@H](CCCNC(=N)N)NC(=O)[C@H](N)CCCNC(=N)N)C1 = 164
CO[C@H]1C[C@H](C(=O)N2Cc3ccccc3C[C@H]2C(=O)N[C@@H](CCCNC(=N)N)C(=O)O)N(C(=O)[C@H](CO)NC(=O)[C@H](Cc2cccs2)NC(=O)CNC(=O)[C@@H]2C[C@@H](O)CN2C(=O)[C@@H]2CCCN2C(=O)[C@H](CCCNC(=N)N)NC(=O)[C@H](N)CCCNC(=N)N)C1 = 1.54
CCCO[C@@H]1C[C@H](C(=O)N2Cc3ccccc3C[C@H]2C(=O)N[C@@H](CCCNC(=N)N)C(=O)O)N(C(=O)[C@H](CO)NC(=O)[C@H](Cc2cccs2)NC(=O)CNC(=O)[C@@H]2C[C@@H](O)CN2C(=O)[C@@H]2CCCN2C(=O)[C@H](CCCNC(=N)N)NC(=O)[C@H](N)CCCNC(=N)N)C1 = 172

Problem: Which Ki is reported for this compound? CCCO[C@H]1C[C@H](C(=O)N2Cc3ccccc3C[C@H]2C(=O)N[C@@H](CCCNC(=N)N)C(=O)O)N(C(=O)[C@H](CO)NC(=O)[C@H](Cc2cccs2)NC(=O)CNC(=O)[C@@H]2C[C@@H](O)CN2C(=O)[C@@H]2CCCN2C(=O)[C@H](CCCNC(=N)N)NC(=O)[C@H](N)CCCNC(=N)N)C1
Solution: 0.59

Provenance of the data: patent US6770741B1
